From: patent US20170298052A1

- assayTarget: human plasma kallikrein (Homo sapiens)
- Sequence (P03952 391-638 limits assumed): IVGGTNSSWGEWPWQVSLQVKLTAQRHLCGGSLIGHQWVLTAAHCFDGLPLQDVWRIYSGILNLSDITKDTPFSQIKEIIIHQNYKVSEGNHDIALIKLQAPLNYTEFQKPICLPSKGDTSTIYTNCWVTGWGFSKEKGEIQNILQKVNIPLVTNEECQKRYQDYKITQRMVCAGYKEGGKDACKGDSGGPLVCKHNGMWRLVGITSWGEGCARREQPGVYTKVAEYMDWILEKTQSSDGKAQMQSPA
- Sequence (P03952 20-390 partner limits assumed): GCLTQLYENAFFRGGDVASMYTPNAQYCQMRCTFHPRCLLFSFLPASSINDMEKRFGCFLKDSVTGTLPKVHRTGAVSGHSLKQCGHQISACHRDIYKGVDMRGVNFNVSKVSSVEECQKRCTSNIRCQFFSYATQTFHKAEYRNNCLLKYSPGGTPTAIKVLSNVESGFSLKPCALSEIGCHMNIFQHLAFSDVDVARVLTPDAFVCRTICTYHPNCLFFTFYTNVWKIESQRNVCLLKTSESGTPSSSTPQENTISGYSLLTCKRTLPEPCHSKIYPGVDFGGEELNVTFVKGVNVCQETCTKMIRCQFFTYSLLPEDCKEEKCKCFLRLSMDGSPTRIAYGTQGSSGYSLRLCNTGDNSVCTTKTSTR
- methodSummary: Determination of the plasma kallikrein activity (fluorogenic peptide substrate, AMC cleavage)
- Format: biochemical
- conditionContext: plasma kallikrein from Kordia 0.6 nM; substrate H-Pro-Phe-Arg-AMC; 30 min at 22° C.; read-out: IC50 [nM] (Table B, plasma kallikrein inhibition)
readoutKind: IC50 (nM)

Example results:
# molecule, unitAnnotation, IC50
records = [
    ("COc1cn(C(Cc2ccccn2)C(=O)Nc2ccc(C(N)=O)c(F)c2)c(=O)cc1-c1cc(Cl)ccc1F (centres unmarked) [Example 17]", "nM", 230),
    ("COc1cn(C(Cc2nnc(C3CC3)o2)C(=O)Nc2ccc(C(N)=O)c(F)c2)c(=O)cc1-c1cc(Cl)ccc1C#N (racemic) [Example 39]", "nM", 38),
    ("COc1cn(C(Cc2ccn(C)n2)C(=O)Nc2ccc(C(N)=O)c(F)c2)c(=O)cc1-c1cc(C)ccc1C#N (racemic) [Example 43]", "nM", 8.3),
    ("COc1cn(C(CCOC2CCC2)C(=O)Nc2ccc(C(N)=O)c(F)c2)c(=O)cc1-c1cc(Cl)ccc1C#N (racemic) [Example 20]", "nM", 6.1),
    ("COCCC(C(=O)Nc1ccc(C(N)=O)c(F)c1)n1cc(OC)c(-c2cc(Cl)c(F)cc2C#N)cc1=O (racemic) [Example 25]", "nM", 160),
]

1: N#Cc1ccc(Cl)cc1-c1cc(=O)n(C(Cc2cocn2)C(=O)Nc2ccc(C(N)=O)c(F)c2)cc1Cl (centres unmarked) [Example 2]
2: COc1cn(C(Cc2cccnc2)C(=O)Nc2ccc(C(N)=O)c(F)c2)c(=O)cc1-c1cc(Cl)ccc1C#N (centres unmarked) [Example 9]
3: N#Cc1ccc(Cl)cc1-c1cc(=O)n(C(Cc2cnco2)C(=O)Nc2ccc(C(N)=O)c(F)c2)cc1OC(F)F (centres unmarked) [Example 1]
4: COc1cn(C(Cc2cnco2)C(=O)Nc2cc(F)c(C(N)=O)c(F)c2)c(=O)cc1-c1cc(Cl)ccc1C#N (racemic) [Example 40]
5: N#Cc1ccc(Cl)cc1-c1cc(=O)n(C(Cc2cnco2)C(=O)Nc2ccc(C(N)=O)c(F)c2)cc1Cl (centres unmarked) [Example 4]
## Input List the 5 entries from lowest IC50 to highest IC50 value. Put the labels in the requested order and list them out.
## Output 2, 4, 5, 1, 3

a: CNC(=O)c1ccc(NC(=O)C(C[C@@H]2CCCCO2)n2cc(Cl)c(-c3cc(Cl)ccc3C#N)cc2=O)cc1F (some centres unmarked) [Example 15]
b: CNC(=O)c1ccc(NC(=O)C(Cc2ccccn2)n2cc(OC)c(-c3cc(Cl)ccc3C#N)cc2=O)cc1F (racemic) [Example 30]
c: COc1cn(C(Cc2ccncc2)C(=O)Nc2ccc(C(N)=O)c(F)c2)c(=O)cc1-c1cc(Cl)ccc1C#N (single isomer, unassigned) [Example 29]
## Input With regard to IC50, arrange the entries in ascending order, please. API: response body holds the labels in the requested order.
## Output c, b, a
